// provenance: ChEMBL document CHEMBL3988442

What Percent Effect was measured for each of the following?
subject of test: Tyrosyl-tRNA synthetase, putative (Trypanosoma cruzi (strain CL Brener)) (UniProt Q4DSP6)
assay notes: Trypanosoma cruzi tyrosyl tRNA synthetase (TcYRS) SOP
Assay type: functional
Set-up: scale not given: direction of the effect not stated beside the values
particulars: 30 µM
# number only, unit % dropped from output

In plain terms, CCS(=O)(=O)N1CCCc2ccc(NC(=O)Cc3ccc(F)cc3)cc21 has a documented Percent Effect of -6.41

Recorded Percent Effect (compound COC(=O)c1ccc(N2CCN(C(=O)c3cnn(C)c3)C(C)C2)cc1 (stereo unspecified) ): 13.9

Form: compound = Cc1cc(S(=O)(=O)N2CCc3ccc(F)cc32)cc(C(=O)O)c1C ; Percent Effect = -28.2

Sure, the documented Percent Effect for CCN1C(=O)CCCC12CCCN(C(=O)c1conc1C)C2 (stereo unspecified) is -5

response.value for Cc1nc(C)n(CC2CN(CC(=O)Nc3cccnc3)CCO2)n1 (stereo unspecified) (field: Percent Effect) = 5.13

Per the records, this compound ( CS(=O)(=O)N1CCc2nc(NC(=O)Nc3c(F)cccc3F)sc2C1 ) has Percent Effect equal to 12.5

The compound COC[C@@H]1CC[C@H]2[C@H](CCN2S(=O)(=O)c2cccc(C)c2)O1 showed Percent Effect equal to 5.13

Value of Percent Effect reported for the compound Cn1cccc1-c1cc(C(=O)N2CC(c3cccnc3)C2)[nH]n1 is 0

The recorded Percent Effect for entry Cc1nnc(N2C[C@@H](OCCCn3cccn3)[C@H]3OCCC[C@H]32)s1 equals 16.1

response.value for O=C1CCC(C(=O)NCc2nn(-c3ccccc3)c3c2CCC3)CN1 (stereo unspecified) (field: Percent Effect) = 6.02

The compound COc1c(CNC2CCCOc3ccccc32)c(C)nn1C (stereo unspecified) showed Percent Effect equal to 11.1

====

subject of test: Ubiquitin-activating enzyme e1, putative (Leishmania donovani (strain BPK282A1)) (UniProt E9BSI1)
Sequence (whole entry): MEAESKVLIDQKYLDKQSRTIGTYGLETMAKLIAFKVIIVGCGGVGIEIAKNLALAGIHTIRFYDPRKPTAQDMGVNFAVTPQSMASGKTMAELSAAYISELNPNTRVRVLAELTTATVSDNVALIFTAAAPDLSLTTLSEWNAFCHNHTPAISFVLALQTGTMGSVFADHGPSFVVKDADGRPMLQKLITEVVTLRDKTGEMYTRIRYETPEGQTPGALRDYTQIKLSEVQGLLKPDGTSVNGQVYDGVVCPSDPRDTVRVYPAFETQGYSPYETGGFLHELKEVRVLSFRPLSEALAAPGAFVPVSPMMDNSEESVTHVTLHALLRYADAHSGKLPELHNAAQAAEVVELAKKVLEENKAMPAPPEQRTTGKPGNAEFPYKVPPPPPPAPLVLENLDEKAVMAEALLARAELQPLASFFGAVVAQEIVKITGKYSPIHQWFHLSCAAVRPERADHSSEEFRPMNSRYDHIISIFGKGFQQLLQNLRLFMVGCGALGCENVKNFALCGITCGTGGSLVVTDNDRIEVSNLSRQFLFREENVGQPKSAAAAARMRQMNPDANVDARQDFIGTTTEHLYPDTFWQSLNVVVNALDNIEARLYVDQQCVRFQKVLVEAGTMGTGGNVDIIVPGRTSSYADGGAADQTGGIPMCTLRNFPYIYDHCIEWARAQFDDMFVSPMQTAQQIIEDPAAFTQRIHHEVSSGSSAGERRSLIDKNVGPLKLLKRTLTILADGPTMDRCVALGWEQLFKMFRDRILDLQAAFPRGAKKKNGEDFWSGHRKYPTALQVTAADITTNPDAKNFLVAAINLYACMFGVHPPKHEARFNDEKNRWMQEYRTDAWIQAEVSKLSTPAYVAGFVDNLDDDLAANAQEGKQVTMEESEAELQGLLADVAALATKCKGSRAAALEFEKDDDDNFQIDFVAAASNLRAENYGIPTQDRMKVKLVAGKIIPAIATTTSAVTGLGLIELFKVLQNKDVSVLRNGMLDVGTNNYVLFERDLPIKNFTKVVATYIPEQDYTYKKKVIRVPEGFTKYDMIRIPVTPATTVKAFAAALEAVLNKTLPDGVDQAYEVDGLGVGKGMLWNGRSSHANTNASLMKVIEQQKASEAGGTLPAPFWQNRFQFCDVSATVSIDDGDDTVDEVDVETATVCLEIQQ
assay notes: Leishmania donovani Ubiquitin Activating Enzyme (LdE1)
Type: functional
Set-up: scale not given: direction of the effect not stated beside the values
particulars: 30 µM
Results with a measured potency or affinity are listed apart.
Lab note: anything with Percent Effect below 10% is marked y; values at 10% or higher are marked n.

## Task Problem: For the molecule CCS(=O)(=O)N1CCC2(CC1)CC(Oc1ccccn1)CO2 (stereo unspecified) , is Percent Effect under 10%?
## Result n

## Task # TODO verify Percent Effect < 10% strictly for this molecule: CCn1nc(C)c(CCNC(=O)C2CCCN(C(=O)N(C)C)C2)c1C (stereo unspecified)
## Result y

## Task Problem: For the molecule Cn1ccc2ccc(C(=O)N3CCN(C(=O)N4CCOCC4)CC3)cc21 , is Percent Effect under 10%?
## Result n

## Task Would you kindly verify if Percent Effect of c1nc2c(c(C3CC3)n1)CCN(CC1CCOC1)CC2 (stereo unspecified) is strictly less than 10%?
## Result y

## Task Here's an entry: Cn1ccnc1CN1CCC2(CC1)CC(NC(=O)c1ccccn1)CO2 (stereo unspecified) . Is its Percent Effect below 10%?
## Result n

## Task Answer whether the molecule Cc1cccc(CNC(=O)CNc2cc(CO)ccc2Cl)c1 has Percent Effect strictly less than 10%
## Result y

====

subject of test: Proteasome subunit beta (Trypanosoma cruzi) (UniProt O96673)
Sequence (O96673 as listed by the source): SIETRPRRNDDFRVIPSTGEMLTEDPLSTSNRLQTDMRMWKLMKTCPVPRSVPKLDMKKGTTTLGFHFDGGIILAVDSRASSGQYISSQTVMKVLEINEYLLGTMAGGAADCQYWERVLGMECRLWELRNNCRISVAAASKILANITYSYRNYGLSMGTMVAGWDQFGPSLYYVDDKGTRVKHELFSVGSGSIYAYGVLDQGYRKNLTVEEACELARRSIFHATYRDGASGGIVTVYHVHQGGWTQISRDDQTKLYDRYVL
assay notes: Trypanosoma cruzi proteasome chymotrypsin-like activity (TcProtChymo) assay. Also: in the data most compounds retested in dose-response had high values.
Format: functional
Set-up: scale not given: direction of the effect not stated beside the values
particulars: 9.37 µM
test readout: Percent Effect (%)
Respond with the bare value in %.

c1csc(N2CCCN(Cc3nc(C4CC4)no3)CC2)n1 has a reported Percent Effect of -1.18

Record O=C1CCCN1Cc1nnc2n1CCN(Cc1ccoc1)CC2 , field Percent Effect: 0.601

Reported Percent Effect of COc1ccc(CN2CCN(C(C)c3nc(C4CC4)no3)CC2)cc1 (stereo unspecified) : 7.76

Percent Effect for CC(=O)NCCNC(=O)c1sc(-c2ccc(Cl)s2)nc1C is 4.67

Measured Percent Effect of O=C(c1cc(C2CC2)on1)N1CCCC(n2cncn2)C1 (stereo unspecified) : 20.7

Sure, the documented Percent Effect for Cc1ccc(CNC(=O)NCCCn2nc3ccccn3c2=O)s1 is 5.95

====

subject of test: Tyrosyl-tRNA synthetase, putative (Trypanosoma cruzi (strain CL Brener)) (UniProt Q4DSP6)
Sequence (whole entry): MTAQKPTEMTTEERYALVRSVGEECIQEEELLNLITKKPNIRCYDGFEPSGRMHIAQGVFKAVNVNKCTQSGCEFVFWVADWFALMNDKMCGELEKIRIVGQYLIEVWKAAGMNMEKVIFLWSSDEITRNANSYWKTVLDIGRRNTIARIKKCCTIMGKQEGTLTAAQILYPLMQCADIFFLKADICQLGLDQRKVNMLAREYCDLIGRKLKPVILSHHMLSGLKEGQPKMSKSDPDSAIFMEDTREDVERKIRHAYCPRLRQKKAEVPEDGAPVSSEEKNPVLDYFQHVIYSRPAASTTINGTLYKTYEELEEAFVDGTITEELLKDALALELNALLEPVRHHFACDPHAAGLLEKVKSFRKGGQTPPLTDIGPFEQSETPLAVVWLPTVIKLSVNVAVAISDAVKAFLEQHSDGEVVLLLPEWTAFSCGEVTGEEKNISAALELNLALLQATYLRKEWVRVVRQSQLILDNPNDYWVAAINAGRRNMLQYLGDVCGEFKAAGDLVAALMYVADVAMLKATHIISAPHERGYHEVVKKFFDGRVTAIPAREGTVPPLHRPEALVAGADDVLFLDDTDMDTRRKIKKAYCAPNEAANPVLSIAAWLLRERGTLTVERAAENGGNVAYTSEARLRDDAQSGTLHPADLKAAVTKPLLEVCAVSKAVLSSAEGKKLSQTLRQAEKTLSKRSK
assay notes: Trypanosoma cruzi tyrosyl tRNA synthetase (TcYRS) SOP
Assay type: functional
Design: scale not given: direction of the effect not stated beside the values
particulars: 30 µM
Can you tell me Percent Effect for the items I'm about to list?
Use % as the unit, but write only the number.

Value of measured Percent Effect for the entry CCNC(=O)CCN1CCC(c2cc(N3CCOCC3)nc(C)n2)CC1 : 9.76

The recorded Percent Effect for entry COc1ccc(NC(C)=O)c(N2CCN(C(C)=O)CC2)n1 equals 8.54

Looking up CCn1ncnc1C1CC(=O)NCc2nc3ccccn3c21 (configuration not stated) , I found its Percent Effect recorded as 9.76

Entry CCN1CCC(NC(=O)CN2CCc3c(ncn3C)C2)CC1 ; Percent Effect = 0

For CCOC(=O)N1CCN(C(=O)CCn2ccc3c(OC)cccc32)CC1 the molecule record lists Percent Effect as -2.6

Percent Effect in this record for CC(C)NC(=O)N1CC[C@@H]2CN(Cc3ccccc3)S(=O)(=O)[C@@H]2CC1 : -5.13

The reported Percent Effect of the molecule CC(C)Cc1cc(C(=O)NCc2nnc[nH]2)[nH]n1 was -2.6

Entry CN(C)CCN1CCCC12CCN(C(=O)c1cnccn1)CC2 , Percent Effect reported as 15

# Percent Effect (molecule: CCc1ccc(OCC(O)CN2CCC(O)CC2)cc1 (configuration not stated) ) is 0

Percent Effect in this record for Cc1cc(C)n(CC2CCCN2CC(=O)N(C)C)n1 (configuration not stated) : 1.24

Form field Percent Effect, entry CO[C@@H]1CC[C@@H](N(C)C(=O)COc2ccc(F)cc2)[C@H]1O : 7.5

Query CN(C)C(=O)C1CN(Cc2ccccc2)CCN(S(C)(=O)=O)C1 (configuration not stated) yields Percent Effect of 9.09
